- procedure-details: Plasma pharmacokinetics of LOX, cis-LOX and trans-LOX after oral LOX in mice pretreated with DEX, KTC or vehicle
- Format: in vivo, Male ICR mice
- assay-conditions: male, ICR, mouse, plasma, po, 20 mg/kg, mouse plasma, LOX 20 mg/kg oral, pretreated VH (10% ethanol) i.p. single dose, mean ± SE, n = 3; read-out: Cmax
Reported Cmax values are given for each entry in this list.
Number only, in ng/mL; omit the unit.

{"compound": "C[C@H](C(=O)O)c1ccc(C[C@H]2CCC[C@@H]2O)cc1 [trans-LOX]", "Cmax [ng/mL]": 2100}

// moving on: another record for Cmax
Query string: Value lookup for Cmax; key = CC(C(=O)O)c1ccc(CC2CCCC2=O)cc1 (centres unmarked) [LOX, reference compound]
Result string: 2700

====

- procedure-details: Plasma pharmacokinetics of LOX, cis-LOX and trans-LOX after oral LOX in mice pretreated with DEX, KTC or vehicle
- Assay type: in vivo, Male ICR mice
- assay-conditions: male, ICR, mouse, plasma, po, 20 mg/kg, mouse plasma, LOX 20 mg/kg oral, pretreated DEX 40 mg/kg i.p. 3 days, mean ± SE, n = 3; read-out: T1/2 (elimination half-life)
Reported half-life values are given for each entry in this list.
Number only, in min; omit the unit.

Query string: Value lookup for half-life; key = C[C@H](C(=O)O)c1ccc(C[C@H]2CCC[C@@H]2O)cc1 [trans-LOX]
Result string: 26.4

Query string: How about CC(C(=O)O)c1ccc(CC2CCCC2=O)cc1 (centres unmarked) [LOX, reference compound] ?
Result string: 12

====

- procedure-details: Plasma pharmacokinetics of LOX, cis-LOX and trans-LOX after oral LOX in mice pretreated with DEX, KTC or vehicle
- Format: in vivo, Male ICR mice
- assay-conditions: male, ICR, mouse, plasma, po, 20 mg/kg, mouse plasma, LOX 20 mg/kg oral, pretreated KTC 60 mg/kg i.p. single dose, mean ± SE, n = 3
Reported AUC(0-t) values are given for each entry in this list.
Number only, in ng·h/mL; omit the unit.

{"compound": "C[C@H](C(=O)O)c1ccc(C[C@H]2CCC[C@@H]2O)cc1 [trans-LOX]", "AUC(0-t) (ng·h/mL)": 1340}

Query string: Value lookup for AUC(0-t); key = CC(C(=O)O)c1ccc(CC2CCCC2=O)cc1 (centres unmarked) [LOX, reference compound]
Result string: 1110

====

- procedure-details: Plasma pharmacokinetics of LOX, cis-LOX and trans-LOX after oral LOX in mice pretreated with DEX, KTC or vehicle
- Format: in vivo, Male ICR mice
- assay-conditions: male, ICR, mouse, plasma, po, 20 mg/kg, mouse plasma, LOX 20 mg/kg oral, pretreated KTC 60 mg/kg i.p. single dose, mean ± SE, n = 3; read-out: Tmax (converted)
Reported Tmax values are given for each entry in this list.
Field note: include the unit after the figure.

{"molecule": "C[C@H](C(=O)O)c1ccc(C[C@H]2CCC[C@@H]2O)cc1 [trans-LOX]", "Tmax": "11.7 min"}

// moving on: another record for Tmax
Query string: Value lookup for Tmax; key = CC(C(=O)O)c1ccc(CC2CCCC2=O)cc1 (centres unmarked) [LOX, reference compound]
Result string: 5 min

====

- procedure-details: Plasma pharmacokinetics of LOX, cis-LOX and trans-LOX after oral LOX in mice pretreated with DEX, KTC or vehicle
- Type: in vivo, Male ICR mice
- assay-conditions: male, ICR, mouse, plasma, po, 20 mg/kg, mouse plasma, LOX 20 mg/kg oral, pretreated VH (10% ethanol) i.p. single dose, mean ± SE, n = 3
Reported AUC(0-inf) values are given for each entry in this list.
Number only, in ng·h/mL; omit the unit.

{"compound": "CC(C(=O)O)c1ccc(CC2CCCC2=O)cc1 (centres unmarked) [LOX, reference compound]", "AUC(0-inf) [ng·h/mL]": 985}

// moving on: another record for AUC(0-inf)
Query string: Value lookup for AUC(0-inf); key = C[C@H](C(=O)O)c1ccc(C[C@H]2CCC[C@@H]2O)cc1 [trans-LOX]
Result string: 1520

Origin of values: paper PMC6781309
